assay: CCTE_Simmons_MITO_basal_resp_rate: CCTE's HepG2 Seahorse XF Respirometric Screening Assay at Basal Respiratory State, Simmons Lab (AID 2284001); details: actives raise or lower the signal
Activity calls are given as the source filed them. Rule for the calls: active = hit-call score of the fitted dose curve at least 0.9, where 1 is the maximum; inactive = score below 0.9.
Valid outcomes are listed here; reply with one: label 1 = active, label 0 = inactive

Recorded results for 5 compounds are shown here.
- Cpd smiles: "CC(C)(O)C(=O)Nc1ccc([N+](=O)[O-])c(C(F)(F)F)c1"
  Qualitative label: "label 1"
- Cpd smiles: "CCNc1nc(NC(C)C)nc(SC)n1"
  Qualitative label: "label 0"
- Cpd smiles: "NS(=O)(=O)C(F)(F)C(F)(F)C(F)(F)C(F)(F)C(F)(F)C(F)(F)C(F)(F)C(F)(F)F"
  Qualitative label: "label 1"
- Cpd smiles: "Oc1c(Cl)c(Cl)c(Cl)c(Cl)c1Cl"
  Qualitative label: "label 1"
- Cpd smiles: "COc1ccc(O)c(C(C)(C)C)c1"
  Qualitative label: "label 1"

Would you mind telling me which call this test gave CC(C)(c1ccccc1)c1ccc(O)cc1 ?
label 1

Would you mind telling me which call this test gave CCCCCCCCCC[N+](C)(C)CCCCCCCCCC ?
label 1

Would you mind telling me which call this test gave CO/C=C(/C(=O)OC)c1ccccc1COc1cccc(C(F)(F)F)n1 ?
label 1

====

test: APR_HepG2_NuclearSize_72hr: Apredica 72-hour HepG2 Assay for Nuclear Size (AID 2282925); conditions: high-content imaging, actives raise or lower the signal
Activity calls are given as the source filed them. The calls were made as follows: active = hit-call score of the fitted dose curve at least 0.9, where 1 is the maximum; inactive = score below 0.9.
Valid outcomes are listed here; reply with one: yes = active, no = inactive

- Molecule: "Cc1ccccc1[N+](=O)[O-]"
  Qualitative label: "no"
- Molecule: "O=C(NC(=O)c1c(F)cccc1F)Nc1cc(Cl)c(OC(F)(F)C(F)F)c(Cl)c1"
  Qualitative label: "no"
- Molecule: "CCOC(=O)C(O)(c1ccc(Cl)cc1)c1ccc(Cl)cc1"
  Qualitative label: "yes"
- Molecule: "CCCCCCOC(=O)c1ccccc1C(=O)OCCCCCC"
  Qualitative label: "no"
- Molecule: "C1CC2OC2CC1C1CO1 (stereo unspecified)"
  Qualitative label: "no"

Here is another molecule to look at.
Would you mind telling me which call this test gave Cc1cc2c3c(c1)C(c1ccccc1)=N[C@@H](NC(=O)c1ccncc1)C(=O)N3CC2 ?
no

====

read-out: Transforming Growth Factor (TGFB1), TGFB1 (gene 7040); test: LTEA_HepaRG_TGFB1: Life Technologies and Expression Analysis (LTEA) Assay for Transforming Growth Factor (TGFB1) Transporter using HepaRG (AID 2283533); details: mRNA level, 48 h; actives raise or lower the signal
Active and inactive are the calls of the source. The calls were made as follows: active = hit-call score of the fitted dose curve at least 0.9, where 1 is the maximum; inactive = score below 0.9.
Valid outcomes are listed here; reply with one: yes (1) (active), no (0) (inactive)

- Molecule: "CN(C)c1nc(=O)n(C2CCCCC2)c(=O)n1C"
  Qualitative label: "no (0)"

Would you mind telling me which call this test gave CC(C)C(=O)OCC(C)(C)C(OC(=O)C(C)C)C(C)C (configuration not stated) ?
no (0)

Would you mind telling me which call this test gave CC(C)(O)C(=O)Nc1ccc([N+](=O)[O-])c(C(F)(F)F)c1 ?
no (0)

Would you mind telling me which call this test gave N#Cc1ccc(N(CC(N)=O)CC(F)(F)F)cc1C(F)(F)F ?
no (0)

Would you mind telling me which call this test gave C=CC(=O)NCNC(=O)C=C ?
no (0)

Would you mind telling me which call this test gave Clc1ccc(Cl)cc1 ?
no (0)

Would you mind telling me which call this test gave O=C(N[C@H]1CN2CCC1CC2)c1cc2ccoc2cn1 ?
no (0)

Would you mind telling me which call this test gave CC1=C2C[C@H]3[C@@H](CC=C4C[C@@H](O)CC[C@@]43C)[C@@H]2CC[C@]12O[C@@H]1C[C@H](C)CN[C@H]1[C@H]2C ?
no (0)

Would you mind telling me which call this test gave CCOP(=S)(OCC)SCSC(C)(C)C ?
no (0)

Would you mind telling me which call this test gave Clc1ccc(C(Cl)(Cl)Cl)cc1 ?
no (0)

Would you mind telling me which call this test gave CCOC(=O)C(O)(c1ccc(Cl)cc1)c1ccc(Cl)cc1 ?
no (0)

Would you mind telling me which call this test gave Oc1ccc(C(c2ccc(O)cc2)(C(F)(F)F)C(F)(F)F)cc1 ?
yes (1)

====

read-out: matrix metalloproteinase-10 (MMP10), MMP10 (gene 4319); test: LTEA_HepaRG_MMP10: Life Technologies and Expression Analysis (LTEA) Assay for matrix metalloproteinase-10 (MMP10) using HepaRG (AID 2283517); details: mRNA level, 48 h; actives raise or lower the signal
The source made the active and inactive calls. The calls were made as follows: active = hit-call score of the fitted dose curve at least 0.9, where 1 is the maximum; inactive = score below 0.9.
Experimental readout: outcome

Consider the reported outcome for these compounds:
- Compound: "O=C(NC(=O)c1c(F)cccc1F)Nc1cc(Cl)c(OC(F)(F)C(F)F)c(Cl)c1"
  Experimental readout: "outcome"
  Val: "inactive"
- Compound: "CCCCCCCCCc1ccc(O)cc1"
  Experimental readout: "outcome"
  Val: "inactive"
- Compound: "CC(C)C(=O)OCC(C)(C)C(OC(=O)C(C)C)C(C)C (stereo unspecified)"
  Experimental readout: "outcome"
  Val: "inactive"
- Compound: "Clc1ccc(C(c2ccccc2Cl)C(Cl)(Cl)Cl)cc1 (stereo unspecified)"
  Experimental readout: "outcome"
  Val: "inactive"

// for each compound below, give its outcome
1. CCC(C)(c1ccc(O)cc1)c1ccc(O)cc1
2. O=C(NC(=O)c1cc(F)c(F)cc1Cl)Nc1cc(F)ccc1N1CCC(C(=O)O)CC1

["inactive", "inactive"]

====

assay: CEETOX_H295R_PROG: CeeTox H295R High-throughput Steroidogenesis Assay for Progesterone (PROG) (AID 2283442); conditions: actives raise or lower the signal
Active and inactive are the calls of the source. The calls were made as follows: active = hit-call score of the fitted dose curve at least 0.9, where 1 is the maximum; inactive = score below 0.9.
Valid outcomes are listed here; reply with one: active, inactive

- Cpd smiles: "O=C(NC(=O)c1c(F)cccc1F)Nc1cc(Cl)c(OC(F)(F)C(F)F)c(Cl)c1"
  Qualitative label: "inactive"
- Cpd smiles: "CCC(C)(CC)c1cc(NC(=O)c2c(OC)cccc2OC)on1"
  Qualitative label: "inactive"
- Cpd smiles: "CC#Cc1cc(C)nc(Nc2ccccc2)n1"
  Qualitative label: "inactive"
- Cpd smiles: "Cc1cc(O)ccc1Cl"
  Qualitative label: "inactive"
- Cpd smiles: "Cc1cccc(C)c1N"
  Qualitative label: "inactive"

Here is another compound to look at.
Would you mind telling me which call this test gave Nc1ccc(-c2ccc(N)cc2)cc1 ?
active

====

experiment: ATG_EGR_CIS: Attagene CIS-FACTORIAL HepG2 Assay for human Early Growth Response 1 (EGR1) (AID 2282938); conditions: HepG2 Attagene CIS-FACTORIAL EGR reporter mRNA; actives raise or lower the signal
Calls of active or inactive are those of the source. The calls were made as follows: active = hit-call score of the fitted dose curve at least 0.9, where 1 is the maximum; inactive = score below 0.9.
Valid outcomes are listed here; reply with one: yes for active, no for inactive

Recorded results for 2 compounds are shown here.
- Cpd smiles: "Cc1cc(O)ccc1Cl"
  Qualitative label: "no"
- Cpd smiles: "O=S(=O)(O)C(F)(F)C(F)(F)C(F)(F)C(F)(F)F"
  Qualitative label: "no"

Would you mind telling me which call this test gave CCOP(=S)(OCC)SCSC(C)(C)C ?
no

Would you mind telling me which call this test gave CCSC(=O)N(CC)C1CCCCC1 ?
no

Would you mind telling me which call this test gave Cc1ccc(O)c(C)c1 ?
no

Would you mind telling me which call this test gave CC#Cc1cc(C)nc(Nc2ccccc2)n1 ?
yes

Would you mind telling me which call this test gave O=C(N[C@H]1CN2CCC1CC2)c1cc2ccoc2cn1 ?
no

Would you mind telling me which call this test gave Cc1ccccc1O ?
no

====

Read-out: Bcl-2 (BID) gene, BID (gene 637)
Test: LTEA_HepaRG_BID: Life Technologies and Expression Analysis (LTEA) Assay for Bcl-2 (BID) gene using HepaRG (AID 2283476)
Conditions: mRNA level, 48 h; actives raise or lower the signal
Method: LTEA_HepaRG is a cell based, multiplexed-readout assay that uses HepaRG, a human liver cell line, with measurements taken at 48 hours after chemical dosing on a 96-well plate.LTEA_HepaRG_BID is one of 102 assay component(s) measured in the LTEA HepaRG cell culture assay. It is a marker of Cell proliferation, survival, death.Data from the assay component LTEA_HepaRG_BID was analyzed into 1 endpoint. […]
The source made the active and inactive calls. How the source made its calls: active means hit-call score of the fitted dose curve at least 0.9, where 1 is the maximum; inactive means score below 0.9.
Valid outcomes are listed here; reply with one: active, inactive

- Compound: "Cc1ccccc1CO[C@@H]1C[C@@]2(C(C)C)CC[C@]1(C)O2"
  Qualitative label: "inactive"

Would you mind telling me which call this test gave Cc1cccc(C)c1N ?
inactive

Would you mind telling me which call this test gave CCC(=O)O[C@H]1CC[C@H]2[C@@H]3CCC4=CC(=O)CC[C@]4(C)[C@H]3CC[C@]12C ?
inactive

Would you mind telling me which call this test gave Clc1ccc(C(Cl)(Cl)Cl)cc1 ?
inactive

Would you mind telling me which call this test gave CC(c1ccc(O)cc1)(c1ccc(O)cc1)c1ccc(O)cc1 ?
active
